Source of measurements: ChEMBL document CHEMBL5120904

- experimentalProtocol: Selectivity index, ratio of CC50 for human Huh7.5 cells to EC50 for antiviral activity against HCV infected in human Huh7.5 cells
- Assay type: toxicity, cell-based
- testContext: read-out: Ratio CC50/EC50
*1 amine or outer side, *2 acyl side, *3 side chain or, on linkers, in order; H or OH if unused. Where a SMILES comes first, the peptide text is derived from it. [ ]: non-standard residue; d: D form. dAla(ψthiazole) = C[C@@H](N[*:1])c1nc(C(=O)[*:2])cs1; Trp(4-OMe) = COc1cccc2[nH]cc(C[C@H](N)C(=O)O)c12; X1 = CC(=O)[C@](C)(N[*:1])C(=O)[*:2]; Dhb = C/C=C(\N)C(=O)O; Sar = CNCC(=O)O
measurementType: selectivity ratio

Sample records with selectivity ratio:
compound	selectivity ratio
C/C=C1\NC(=O)[C@@H](C)NC(=O)CNC(=O)[C@](C)(C(C)=O)NC(=O)[C@H](Cc2c[nH]c3cccc(OC)c23)NC(=O)c2csc(n2)[C@@H](C)NC(=O)CNC1=O	> 4.3
C/C=C1\NC(=O)[C@@H](C)NC(=O)CNC(=O)[C@](C)(C(C)=O)NC(=O)[C@H](Cc2c[nH]c3cccc(OC)c23)NC(=O)c2csc(n2)[C@@H](C)NC(=O)CN(C)C1=O (cyclo([Dhb][Sar][dAla(ψthiazole)][Trp(4-OMe)][X1]G[dA]))	> 16.6
C/C=C1\NC(=O)[C@@H](CC)NC(=O)CNC(=O)[C@](C)(C(C)=O)NC(=O)[C@H](Cc2c[nH]c3cccc(OC)c23)NC(=O)c2csc(n2)[C@@H](C)NC(=O)CN(C)C1=O	> 17.7
CC(C)OC(=O)[C@H](C)N[P@@](=O)(OC[C@H]1O[C@@H](n2ccc(=O)[nH]c2=O)[C@](C)(F)[C@@H]1O)Oc1ccccc1	> 3330

Dear colleague, could you please provide selectivity ratio for the compounds listed below?
1. C/C=C1\NC(=O)[C@@H](CC)NC(=O)CNC(=O)[C@](C)([C@H](C)O)NC(=O)[C@H](Cc2c[nH]c3cccc(OC)c23)NC(=O)c2csc(n2)[C@@H](C)NC(=O)CN(C)C1=O
2. C/C=C1\NC(=O)[C@@H](CC)NC(=O)CNC(=O)[C@](C)(C(C)=O)NC(=O)[C@H](Cc2c[nH]c3cccc(OC)c23)NC(=O)c2csc(n2)[C@@H](C)NC(=O)CNC1=O

A.
["> 2", "> 1.1"]

* * *

- System: Bacillus subtilis
- experimentalProtocol: Antibacterial activity against Bacillus subtilis ATCC6633 measured after 24 hrs by broth microdilution method
- Format: functional
measurementType: MIC

Solved cases below.
compound	dataValue
C[C@H]1COc2c(N3CCN(C)CC3)c(F)cc3c(=O)c(C(=O)O)cn1c23.C[C@H]1COc2c(N3CCN(C)CC3)c(F)cc3c(=O)c(C(=O)O)cn1c23.O	< 0.078 µg/mL
Cc1onc(-c2ccccc2)c1C(=O)N[C@@H]1C(=O)N2[C@@H]1SC(C)(C)[C@@H]2C(=O)O	< 0.078 µg/mL

Go through the items and report each one's MIC.
1. C/C=C1\NC(=O)[C@@H](CC)NC(=O)CNC(=O)[C@](C)(C(C)=O)NC(=O)[C@H](Cc2c[nH]c3cccc(OC)c23)NC(=O)c2csc(n2)[C@@H](C)NC(=O)CN(C)C1=O
2. C/C=C1\NC(=O)[C@@H](CC)NC(=O)CNC(=O)[C@](C)(C(C)=O)NC(=O)[C@H](Cc2c[nH]c3cccc(OC)c23)NC(=O)c2csc(n2)[C@@H](C)NC(=O)CNC1=O

A.
["> 160 µg/mL", "> 160 µg/mL"]

Give MIC for each of the items listed below.
1. C/C=C1\NC(=O)[C@@H](C)NC(=O)CNC(=O)[C@](C)(C(C)=O)NC(=O)[C@H](Cc2c[nH]c3cccc(OC)c23)NC(=O)c2csc(n2)[C@@H](C)NC(=O)CNC1=O
2. C=C1NC(=O)[C@@H](CC)NC(=O)CNC(=O)[C@](C)(C(C)=O)NC(=O)[C@H](Cc2c[nH]c3cccc(OC)c23)NC(=O)c2csc(n2)[C@@H](C)NC(=O)CN(C)C1=O

A.
1: > 160 µg/mL; 2: > 160 µg/mL

* * *

- Test system: Bacillus subtilis
- experimentalProtocol: Antibacterial activity against Bacillus subtilis ATCC6633 measured after 24 hrs by broth microdilution method
- Assay type: functional
measurementType: MIC

compound	measurementType	dataValue
CN[C@H](CC(C)C)C(=O)N[C@H]1C(=O)N[C@@H](CC(N)=O)C(=O)N[C@H]2C(=O)N[C@H]3C(=O)N[C@H](C(=O)N[C@H](C(=O)O)c4cc(O)cc(O)c4-c4cc3ccc4O)[C@H](O)c3ccc(c(Cl)c3)Oc3cc2cc(c3O[C@@H]2O[C@H](CO)[C@@H](O)[C@H](O)[C@H]2O[C@H]2C[C@](C)(N)[C@H](O)[C@H](C)O2)Oc2ccc(cc2Cl)[C@H]1O	MIC	< 0.078 µg/mL
C/C=C1\NC(=O)[C@@H](CC)NC(=O)CNC(=O)[C@](C)([C@H](C)O)NC(=O)[C@H](Cc2c[nH]c3cccc(OC)c23)NC(=O)c2csc(n2)[C@@H](C)NC(=O)CN(C)C1=O	MIC	> 160 µg/mL
C/C=C1\NC(=O)[C@@H](C)NC(=O)CNC(=O)[C@@H](CC)NC(=O)[C@H](Cc2c[nH]c3cccc(OC)c23)NC(=O)c2csc(n2)[C@@H](C)NC(=O)CN(C)C1=O	MIC	> 160 µg/mL
C/C=C1\NC(=O)[C@@H](CC)NC(=O)CNC(=O)[C@](C)([C@@H](C)O)NC(=O)[C@H](Cc2c[nH]c3cccc(OC)c23)NC(=O)c2csc(n2)[C@@H](C)NC(=O)CN(C)C1=O	MIC	> 160 µg/mL

Now, please, on to the next molecule.
Q. Request the reported MIC associated with CO[C@H]1/C=C/O[C@@]2(C)Oc3c(C)c(O)c4c(O)c(c(/C=N/N5CCN(C)CC5)c(O)c4c3C2=O)NC(=O)/C(C)=C\C=C\[C@H](C)[C@H](O)[C@@H](C)[C@@H](O)[C@@H](C)[C@H](OC(C)=O)[C@@H]1C
A. < 0.078 µg/mL

* * *

Provide the reported MIC of each item.
- Tested on: Staphylococcus aureus
- experimentalProtocol: Antibacterial activity against methicillin-sensitive Staphylococcus aureus ATCC29213 measured after 24 hrs by broth microdilution method
- Format: functional

Here's what some known entries look like.
compound	measurementType	dataValue
C=C1NC(=O)[C@@H](CC)NC(=O)CNC(=O)[C@](C)(C(C)=O)NC(=O)[C@H](Cc2c[nH]c3cccc(OC)c23)NC(=O)c2csc(n2)[C@@H](C)NC(=O)CN(C)C1=O	MIC	10 µg/mL
C/C=C1\NC(=O)[C@@H](C)NC(=O)CNC(=O)[C@@H](CC)NC(=O)[C@H](Cc2c[nH]c3cccc(OC)c23)NC(=O)c2csc(n2)[C@@H](C)NC(=O)CN(C)C1=O	MIC	> 160 µg/mL
CO[C@H]1/C=C/O[C@@]2(C)Oc3c(C)c(O)c4c(O)c(c(/C=N/N5CCN(C)CC5)c(O)c4c3C2=O)NC(=O)/C(C)=C\C=C\[C@H](C)[C@H](O)[C@@H](C)[C@@H](O)[C@@H](C)[C@H](OC(C)=O)[C@@H]1C [RIFAMPIN]	MIC	< 0.078 µg/mL

# input for lookup
Q. Give its MIC value. Item: C[C@H]1COc2c(N3CCN(C)CC3)c(F)cc3c(=O)c(C(=O)O)cn1c23.C[C@H]1COc2c(N3CCN(C)CC3)c(F)cc3c(=O)c(C(=O)O)cn1c23.O [LEVOFLOXACIN]
A. 0.078 µg/mL
